test system: SF-268 CNS; assay: NCI-60 one-dose screen, 48 h (100 = growth as untreated, 0 = no growth, -100 = all killed); conditions: 10 µM unless noted
This is part of a sample that, as a whole, favours compounds with a hit. Of some 83,000 tested, about 20% had one in any assay.
Label true (1) when growth >= 60%; otherwise false (0).

Reported growth reaches at least 60% for NS(=O)(=O)c1ccc(N=Nc2c(O)n(CC(=O)Nc3ccccc3)c3ccccc23)cc1 ?
true (1)

Reported growth reaches at least 60% for S=C(Nc1ccccc1)Nc1ccc(OCc2nc3ccccc3[nH]2)cc1 ?
false (0)

In plain terms: is recorded growth at least 60% for CCOC(=O)C1=C(N)N(c2ccccc2)C2=C(C(=O)CC(C)(C)C2)C1c1cccc(Cl)c1Cl (stereo not given) ?
true (1)

Determine whether this compound has growth no lower than 60%: COc1ccc(C(=O)/C=C/c2cccc3ccccc23)cc1S(N)(=O)=O
false (0)

Identify whether the reported growth of the following compound is 60% or greater: COC(OC)C1=C(C)OC(N)=C(C#N)C12C(=O)Nc1ccccc12 (stereo not given)
true (1)

// inclusive: growth at least 60%? input: C#C[C@]1(O)CC[C@H]2[C@@H]3CC=C4c5sc(-c6ccc(O)c(O)c6)nc5CC[C@]4(C)[C@H]3CC[C@@]21C
false (0)

Check the entry CC(=O)N1CCN(Cc2ccc3c(NNC(=O)c4cnccn4)nc4cc(F)ccc4n23)CC1 : does growth equal or exceed 60%?
false (0)

Decide: is the reported value of growth for COc1ccc(-c2ccnc(SCc3cc4cc(OC)ccc4[nH]c3=O)n2)cc1 equal to or greater than 60%?
false (0)

Evaluate COc1cc(/C=C/C(=O)c2ccccc2)ccc1Oc1nc(Nc2ccc(F)cc2)nc(N(C)C)n1 : growth at minimum 60%?
false (0)

Given the entry Cc1c(C(=O)NNC(=O)c2ccc(Cl)cc2)nnn1-c1ccc(Br)cc1 , answer whether its growth meets or surpasses 60%.
true (1)

Can COc1ccc(C2CC(c3ccc(S(=O)(=O)NCCNc4nc(Nc5ccc(F)cc5)nc(N(C)C)n4)cc3)=Nc3c(N)nc(N)nc3N2)cc1 (stereo not given) be said to have growth at or above 60%?
true (1)

Check if growth >= 60% (inclusive). Item: Cc1cc(C)cc(NC(=O)Cn2cc(COn3nnc4ccccc43)nn2)c1
true (1)

growth >= 60% for COc1cc(C2CC(c3cc(OC)c(OC)c(OC)c3)=NN2C(C)=O)ccc1OCc1ccccc1 (stereo not given) ?
false (0)

Hi, just wondering whether COc1c(F)ccc(C(=O)Nc2ccc3nc(NC(=O)C4CCCN(S(=O)(=O)c5ccc(C#N)cc5)C4)sc3c2)c1F (stereo not given) shows growth of 60% or higher.
true (1)

State whether the measured growth reaches 60%, counting equality as reaching it, for O=C(/C=C/c1cccc(OCc2ccc(F)cc2)c1)c1nc2ccccc2[nH]1
true (1)

Does CCN1C(=O)/C(=N\N=C(/C)c2ccc3c(c2)Nc2ccccc2S3)c2cc(Cl)ccc21 have a reported growth of at least 60%?
false (0)

Kindly determine if growth recorded for O=C(/C=C/c1ccc(-c2ccccc2)cc1)c1nc2ccccc2n1Cc1ccc(F)cc1 is above or exactly 60%.
true (1)

Identify whether the reported growth of the following compound is 60% or greater: COc1ccc(-c2cc(C(=O)NCc3ccccc3)nn2-c2ccc(S(C)(=O)=O)cc2)cc1OC
true (1)

Assess whether reported growth for O=C(Cn1c(/C=C/c2ccccc2)nc2ccccc2c1=O)Nc1ccccc1 sits at 60% or higher.
true (1)

Determine whether this compound has growth no lower than 60%: CCCCCCn1c(O)c(N=Nc2nc(-c3cc4ccccc4oc3=O)cs2)c2ccccc21
false (0)

Given Cn1cc(-c2cc3nc(-c4c[nH]c5ccc(Br)cc45)cc(N)n3n2)c2ccccc21 , state whether its growth is at least 60%.
false (0)

Check if growth >= 60% (inclusive). Item: C=C1CC[C@@H]2[C@]3(C)COC(c4cn[nH]c4-c4ccc(OC)cc4)O[C@@H]3CC[C@@]2(C)[C@@H]1C/C=C1/C(=O)OCC1O (stereo not given in full)
false (0)

Could you verify whether the entry Cn1cc(-c2nc(N)nnc2-c2c[nH]c3ccc(Br)cc23)c2cccnc21 shows growth of no less than 60%?
true (1)

Could you verify whether the entry Cc1cccc(NC(=O)[C@]23CCC(C)(C)CC2C2=CCC4[C@@]5(C)C[C@@H](O)[C@H](O)[C@@](C)(CO)C5CC[C@@]4(C)[C@]2(C)CC3)c1 (stereo not given in full) shows growth of no less than 60%?
false (0)

Would you say O=c1[nH]c(=O)c2c(-c3cc4ccccc4oc3=O)ccnc2[nH]1 shows growth at minimum 60%?
true (1)

Has Cc1cc(=O)oc2cc(OCCCCOc3ccc(/C=C/C(=O)Nc4ccccc4N)cc3)ccc12 a recorded growth greater than or equal to 60%?
false (0)

Could you tell me if the measured growth of COc1ccc(C(=O)/C=C/c2cccc(Cl)c2)cc1S(N)(=O)=O reaches 60% or more?
false (0)

# bool: growth of Cc1sc2c(c1C)C(c1ccc(Cl)cc1)=N[C@@H](CC(=O)NCCCCCNC(=O)COc1ccc(C3CCC(=O)NC3=O)cc1)c1nnc(C)n1-2 (stereo not given in full) >= 60%
true (1)

Kindly determine if growth recorded for Nc1nc(-c2ccccc2)c(N=Nc2ccc([N+](=O)[O-])cc2Cl)s1 is above or exactly 60%.
true (1)

API: above_or_equal(metric=growth, cutoff=60%) for item CN(C)c1nc(NCCNS(=O)(=O)c2ccc(C(=O)/C=C/c3ccc(C(F)(F)F)cc3)cc2)nc(Nc2ccc(F)cc2)n1
false (0)

Would you say CCOC(=O)/C=C/c1cccc2c1C(=O)NC(C)(c1cc3cc(Br)ccc3oc1=O)N2 (stereo not given) shows growth at minimum 60%?
false (0)

Check the entry CC(=O)OC[C@@]1(C)C2CC[C@]3(C)C(CC=C4C5CC(C)(C)CC[C@]5(C(=O)Nc5ccc(F)cc5)CC[C@]43C)[C@@]2(C)C[C@@H](OC(C)=O)[C@@H]1OC(C)=O (stereo not given in full) : does growth equal or exceed 60%?
false (0)

----------
system: OVCAR-3 ovarian; assay: NCI-60 one-dose screen, 48 h (100 = growth as untreated, 0 = no growth, -100 = all killed); settings: 10 µM unless noted
Compounds without any hit were thinned out: in the full panel of roughly 83,000, 20% have a hit.
Would you kindly list growth for each of these compounds?
// return numeric value only (unit: %, not printed)

Give the reported growth for this compound. COc1ccc(C(=O)/C=C/c2ccc(Cl)c(Cl)c2)cc1S(N)(=O)=O
-23.5

Please report the measured growth for N#Cc1ccc(/C=N/NC(=O)c2[nH]c3ccc(Br)cc3c2-c2ccccc2)o1
14.6

Note growth for the compound shown: N#Cc1c(-c2ccccc2Cl)cc(-c2ccc3ccccc3c2)[nH]c1=O
-7.55

Provide only the value of recorded growth for CC1(C)CC[C@]2(C(=O)O)CC[C@]3(C)C(=CCC4[C@@]5(C)C[C@@H](O)[C@@H]6OC(c7ccccc7Br)OC[C@@]6(C)C5CC[C@]43C)C2C1 (some centres undefined)
9.3

# return recorded growth for input O=C(Cn1nc(-c2ccccc2)ccc1=O)N/N=C/c1ccc(N2CCOCC2)cc1
103

Identify growth associated with the compound COc1cc(CNC(=O)/C=C/c2ccc3c(c2)OCO3)ccc1OCc1cn(-c2ccc([N+](=O)[O-])cc2)nn1
108

For the compound C/C(=N\N=C\c1cc([N+](=O)[O-])ccc1Cl)c1ccc2c(c1)Nc1ccccc1S2 , give its reported growth.
-4

Tell us which growth value is on record for Cn1cc(-c2nnc(N)nc2-c2c[nH]c3ccccc23)c2cccnc21
25.9

Please report growth for the following compound: COc1ccc(-c2c(Nn3cnnn3)no[n+]2[O-])cc1
46.5

----------
system: MDA-MB-435 melanoma; assay: NCI-60 one-dose screen, 48 h; settings: 10 µM unless noted
This is part of a sample that, as a whole, favours compounds with a hit. Of some 83,000 tested, about 20% had one in any assay. Active and inactive are the calls of the source. How the source made its calls: active means growth percent below 10; inactive means the rest.
Response enum: true (1) (active), false (0) (inactive)

What was the test verdict on C#CCOc1cc(N(CC)CC)ccc1C(C(=O)NC(C)(C)C)N(C(=O)C1CCc2cc(F)ccc2O1)c1ccccc1Br (stereo not drawn) ?
false (0)

Answer briefly: the call reported for CCOC(=O)COc1c(OC)c(OC)cc2oc(-c3cccc(C(=O)Nc4ccc(Cl)cc4)c3)cc(=O)c12 in this assay.
true (1)

What was the test verdict on NS(=O)(=O)c1ccc(N=Nc2c(O)n(CC(=O)Nc3ccccc3)c3ccccc23)cc1 ?
true (1)

Short answer needed: outcome of this test for COc1ccc2c(c1)c(-c1cc3nc(-c4cn(C)c5ncc(Br)cc45)cc(N)n3n1)cn2C ?
true (1)

Field: outcome | Entry: O=C(c1ccccc1)c1ccc2nc(-c3ccc(F)cc3)[nH]c2c1
false (0)

# outcome recorded in this test, key = C=C1CC[C@@H]2[C@]3(C)COC(c4cn[nH]c4-c4ccc(C)cc4)O[C@@H]3CC[C@@]2(C)[C@@H]1C/C=C1/C(=O)OCC1O (stereo partly drawn)
true (1)

# outcome recorded in this test, key = Cc1ccc(C(=O)CSc2nc3ccc(F)cc3c(=O)n2-c2ccc(Cl)cc2)cc1
false (0)

Assay outcome for COc1ccc2[nH]cc(-c3nnc(N)nc3-c3cn(C)c4ncc(Br)cc34)c2c1 : what was it?
false (0)

Per the assay record, what outcome was assigned to COc1ccc(-c2ccnc(SCc3cc4cc(Cl)ccc4[nH]c3=O)n2)cc1 ?
false (0)

Outcome? Brc1ccc(-c2n(Cc3ccc4ccccc4c3)c(-c3ccccc3)c(-c3ccccc3)[n+]2Cc2ccc3ccccc3c2)cc1
true (1)

Could you please tell me the result logged for Cc1ccc(C2CC(c3ccc(S(=O)(=O)NCCNc4nc(Nc5ccc(F)cc5)nc(N(C)C)n4)cc3)=Nc3c(N)nc(N)nc3N2)cc1 (stereo not drawn) in this assay?
false (0)

Check the results log: what was the call for CCCCCCCS(=O)(=O)N1CCCC(C(=O)Nc2nc3ccc(NC(=O)c4ccc(F)c(OC)c4F)cc3s2)C1 (stereo not drawn) ?
false (0)

GET /call?item= COc1ccc(C(=O)/C=C/c2ccc(Cl)c(Cl)c2)cc1S(N)(=O)=O returns the recorded outcome of this test.
true (1)

Hey, what did the test say about CC1=C(C(=O)c2ccccc2)C(c2cccc(Cl)c2Cl)n2c(nc3ccccc32)N1 (stereo not drawn) ?
false (0)

Recorded call for Cc1cc2nc3c4ccccc4n(CCNCCN(C)C)c3nc2cc1C ?
true (1)

// return assay outcome for Nc1nc(-c2ccccc2)c(N=Nc2ccc(Cl)cc2[N+](=O)[O-])s1
false (0)

So what was the verdict on OCC1(CCCc2ccccc2)CCCN(c2nccc3ccccc23)C1 (stereo not drawn) in this test?
false (0)

Please state the recorded outcome for this molecule: Cc1ccc(NC(=O)CN2CCN(c3ncnc4c3cnn4-c3ccccc3)CC2)cc1
false (0)

The values you see were collected from PubChem BioAssay (NCI).
